Reference for the values: ChEMBL document CHEMBL6121024

EC50 overview
TEST TARGET: Zinc finger protein Aiolos (Homo sapiens, UniProt Q9UKT9)
Sequence (Q9UKT9 whole entry): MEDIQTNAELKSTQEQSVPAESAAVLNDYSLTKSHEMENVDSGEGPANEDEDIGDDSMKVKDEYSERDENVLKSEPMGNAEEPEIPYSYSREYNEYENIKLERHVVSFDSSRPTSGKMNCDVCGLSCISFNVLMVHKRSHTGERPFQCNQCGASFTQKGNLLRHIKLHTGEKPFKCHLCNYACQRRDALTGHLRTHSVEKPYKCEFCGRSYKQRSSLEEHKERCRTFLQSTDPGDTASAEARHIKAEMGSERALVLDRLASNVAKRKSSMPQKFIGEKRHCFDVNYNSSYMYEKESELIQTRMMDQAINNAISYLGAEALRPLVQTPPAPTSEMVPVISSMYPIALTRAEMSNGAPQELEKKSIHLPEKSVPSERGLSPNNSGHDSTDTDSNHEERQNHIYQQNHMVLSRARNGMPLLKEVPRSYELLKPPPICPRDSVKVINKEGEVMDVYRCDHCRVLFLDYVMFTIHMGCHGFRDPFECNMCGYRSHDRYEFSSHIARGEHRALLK
MEASUREMENT PROTOCOL: Induction of degradation of ePL tagged AIOLOS in human DF15 cells incubated for 4 hrs by luminescence based analysis
READOUT KIND: EC50

compound="CN(C(=O)OC(C)(C)C)C1CCN(c2cccc3c(C4CCC(=O)NC4=O)nn(C)c23)CC1 (stereo not given)" test_target="Zinc finger protein Aiolos (Homo sapiens, UniProt Q9UKT9)" result="2.72 µM"
compound="COc1cc2c(C3CCC(=O)NC3=O)nn(C)c2cc1N1CCC(N(C)C(=O)OC(C)(C)C)CC1 (stereo not given)" test_target="Zinc finger protein Aiolos (Homo sapiens, UniProt Q9UKT9)" result="> 10 µM"
compound="CN(C(=O)OC(C)(C)C)C1CCN(c2cccc(C3CCC(=O)NC3=O)c2)CC1 (stereo not given)" test_target="Zinc finger protein Aiolos (Homo sapiens, UniProt Q9UKT9)" result="> 10 µM"
compound="Cn1nc(C2CCC(=O)NC2=O)c2cc(NCC3CCN(C(=O)OC(C)(C)C)CC3)ccc21 (stereo not given)" test_target="Zinc finger protein Aiolos (Homo sapiens, UniProt Q9UKT9)" result="> 10 µM"
compound="CN(C(=O)OC(C)(C)C)C1CCN(c2ccc(C3CCC(=O)NC3=O)cc2)CC1 (stereo not given)" test_target="Zinc finger protein Aiolos (Homo sapiens, UniProt Q9UKT9)" result="> 10 µM"
